Parameter IC50: see the listing below.
# system under test: benzodiazepine receptor
# test description: Displacement of tritiated flunitrazepam from the benzodiazepine receptor (synaptic preparations of rat brain)
# Type: binding
# measurement setup: tritiated flunitrazepam (60 Ci/mM), 1.1 nM final, read-out: median effective concentration (IC50)
Respond with a number, then the unit of measure.

Worked examples follow.
>  <compound>
Cc1nnc2cc(Cc3ccccc3)cnn12 [SR 95 252]

>  <system under test>
benzodiazepine receptor

>  <IC50>
0.027 mM

$$$$
>  <compound>
c1ccc(-c2cnn3cnnc3c2)cc1 [SR 95 194, 7-Phenyl-1,2,4-triazolo[4,3-b]pyridazine]

>  <system under test>
benzodiazepine receptor

>  <IC50>
0.049 mM

$$$$
>  <compound>
c1ccc(-c2cnn3c(-c4ccccc4)nnc3c2)cc1 [SR 95 494]

>  <system under test>
benzodiazepine receptor

>  <IC50>
0.05 mM

$$$$
>  <compound>
Cc1nnc2cc(-c3cccc(C(F)(F)F)c3)cnn12 [SR 95 533]

>  <system under test>
benzodiazepine receptor

>  <IC50>
0.0029 mM

$$$$
>  <compound>
c1ccc(Cc2nnc3cc(-c4ccccc4)cnn23)cc1 [SR 95 491]

>  <system under test>
benzodiazepine receptor

>  <IC50>
0.0045 mM

$$$$
>  <compound>
Cc1nnc2cc(-c3cccc(Cl)c3)cnn12 [SR 95 398]

>  <system under test>
benzodiazepine receptor

>  <IC50>
0.0026 mM

$$$$

Now turn to the next compound.
Indicate the recorded IC50 value for this compound: Cc1nnc2cc(-c3ccccc3)cnn12 [SR 95 195]
0.009 mM

* * *

# test description: Acute oral toxicity in female Charles River CD1 mice
# measurement setup: mouse, in vivo, 1000 mg/kg orally, read-out: % toxicity (percentage of dead animals)
endpoint: mortality at 72 h

>  <molecule>
Cc1nnc2cc(-c3ccccc3)cnn12

>  <experimental value>
80%

$$$$
>  <molecule>
c1ccc(-c2cnn3cnnc3c2)cc1 [SR 95 194, 7-Phenyl-1,2,4-triazolo[4,3-b]pyridazine]

>  <experimental value>
100%

$$$$
>  <molecule>
Cc1nnc2cc(-c3ccc(Cl)cc3)cnn12

>  <experimental value>
100%

$$$$

Quote mortality at 72 h reported for "Cc1ccc(-c2cnn3c(C)nnc3c2)cc1" please.
100%

Identify mortality at 72 h associated with the molecule "Cc1nnc2cc(Cc3ccccc3)cnn12"
100%

Please look at this molecule and report its mortality at 72 h: "COc1ccc(-c2cnn3c(C)nnc3c2)cc1"
0%

Note mortality at 72 h for the molecule shown: "Cc1nnc2cc(CCc3ccccc3)cnn12"
0%

* * *

# test description: Acute oral toxicity in female Charles River CD1 mice
# measurement setup: mouse, in vivo, 500 mg/kg orally, read-out: % toxicity (percentage of dead animals)
endpoint: mortality at 72 h (%)
Answer with a number only, understood to be in %.

Below, 4 compounds whose answers are already recorded.
>  <compound>
Cc1nnc2cc(Cc3ccccc3)cnn12

>  <mortality at 72 h [%]>
0

$$$$
>  <compound>
Clc1ccc(-c2nnc3cc(-c4ccccc4)cnn23)cc1

>  <mortality at 72 h [%]>
0

$$$$
>  <compound>
COc1ccc(-c2cnn3c(C)nnc3c2)cc1

>  <mortality at 72 h [%]>
0

$$$$
>  <compound>
c1ccc(-c2cnn3cnnc3c2)cc1 [SR 95 194, 7-Phenyl-1,2,4-triazolo[4,3-b]pyridazine]

>  <mortality at 72 h [%]>
0

$$$$

Answer with reported mortality at 72 h of "Cc1ccc(-c2cnn3c(C)nnc3c2)cc1"
100

Tell us which mortality at 72 h value is on record for "Cc1nnc2cc(-c3ccccc3Cl)cnn12"
0

Provide one value: measured mortality at 72 h of "Cc1nnc2cc(CCc3ccccc3)cnn12"
0

Look up mortality at 72 h of "Cc1nnc2cc(-c3cccc(Cl)c3)cnn12" and report it.
0

Read the entry "Cc1nnc2cc(-c3ccccc3)cnn12" and write its reported mortality at 72 h.
0

Specify reported mortality at 72 h for the compound shown: "Cc1nnc2cc(-c3ccc(Cl)cc3)cnn12"
100

State, in one line, measured mortality at 72 h of "c1ccc(-c2cnn3c(-c4ccccc4)nnc3c2)cc1"
0
